Data origin, for the record: patent US20190064177A1

System: diaphorase
Assay: fluorescently labeled diaphorase binding to peptide array with or without excess FAD
Conditions: 1 micromolar labeled diaphorase, excess FAD present; 65535 is detector saturation
Protocol: Measurements were performed in which diaphorase was bound to an array of about 126,000 unique sequences. The sequences were chosen simply to cover sequence space. 16 of the natural 20 amino acids were used to make up these sequences with C, I, M and T omitted. The diaphorase was fluorescently labeled and each peptide sequence feature was scanned and fluorescence recorded on the array. Diaphorase bound tightly to some peptides and not at all to others. […]
PROPERTY_LABEL: 1 microM FAD (array fluorescence of bound diaphorase)

Use these answered entries as a reference point.
INSERT INTO assay_data (seq_text, readout_value) VALUES
  ('RYPWNKLYKFDGSG [array peptide with C-terminal GSG linker]', 3483.25),
  ('PRYQNFGGGSG [array peptide with C-terminal GSG linker]', 2458),
  ('DLFQLVFSGSG [array peptide with C-terminal GSG linker]', 9011),
  ('KEAPGPRFGGSG [array peptide with C-terminal GSG linker]', 8281.5),
  ('WRGFKFADGGSG [array peptide with C-terminal GSG linker]', 2156.5),
  ('NVSDLSQFYLSGSG [array peptide with C-terminal GSG linker]', 3436.25),
  ('RWKYQKFNGGSG [array peptide with C-terminal GSG linker]', 3860.75),
  ('VERASYNLDGSG [array peptide with C-terminal GSG linker]', 2238);

(a) RWYKNGGSG [array peptide with C-terminal GSG linker]
(b) RWQYYNQKFGSG [array peptide with C-terminal GSG linker]
(c) EAVQKLLFSGSG [array peptide with C-terminal GSG linker]
# rank by 1 microM FAD (array fluorescence of bound diaphorase), ascending (min first) Give your ranking as a list of the labels in the requested order.
c, a, b
(c: 2420, a: 3658, b: 5458)

(P) KNRPYNKDLEDGSG [array peptide with C-terminal GSG linker]
(Q) DLDKAFGGSG [array peptide with C-terminal GSG linker]
Sorting by 1 microM FAD (array fluorescence of bound diaphorase) in descending order, would P or Q appear first? Please indicate the selected item by its label.
P
(P: 5147, Q: 2049.75)

(A) YSALFGLQEDGSG [array peptide with C-terminal GSG linker]
(B) YRLNLKHPVGGSG [array peptide with C-terminal GSG linker]
(C) VKDGNKHYWRVSGSG (VKDGANKHYWRVSGSG) [array peptide with C-terminal GSG linker]
(D) VFGVLSQVARDGSG [array peptide with C-terminal GSG linker]
# rank by 1 microM FAD (array fluorescence of bound diaphorase), ascending (min first) Give your ranking as a list of the labels in the requested order.
A, B, D, C
(A: 2100.75, B: 4146.5, D: 6638, C: 12347.25)
